System: TK-10
assay.method.text: NCI tumour cell line growth inhibition, 48 h
Active and inactive are the calls of the source. Cut-off read from the data, not from the text of the source: active = GI50 up to about 1.1 µM and inactive = higher.
Parameter: GI50. Scope: all listed entries.

Consider the worked cases shown below.
CCCCCCC(=O)c1ccc2ccccc2c1O ... > 100 µM (inactive)
Cn1c2ccc([N+](=O)[O-])cc2c(=O)c2c(O)cc(O)cc21 ... 66.2 µM (inactive)
CCCCCCCCCCCCCCCCP(=O)(O)OP(=O)(O)OCC1OC(n2cnc3c(N)ncnc32)C(O)C1O (centres undefined) ... 15.6 µM (inactive)

Ask | Requested field: GI50. Item: [N-]=[N+]=Nc1nnc(CCCCc2nnc(N=[N+]=[N-])o2)o1
Reply | > 100 µM (inactive)

Ask | Requested field: GI50. Item: Cc1ccc2c(c1)C(=O)/C(=C\c1ccccc1)CCS2(=O)=O
Reply | 13.8 µM (inactive)

Ask | Requested field: GI50. Item: Cc1ccc2c(O)c3c(cc2c1)C(=O)c1c2c(cc(O)c1C3=O)C1(C)OC(O2)C(O)C(N(C)C)C1O (centres undefined)
Reply | 1.69 µM (inactive)

Ask | Requested field: GI50. Item: CCSc1[nH]c(/N=C(/NC(=O)c2ccccc2)NC(C)C)c(C(N)=O)c1C(N)=O
Reply | > 10 µM (inactive)

Ask | Requested field: GI50. Item: O=C(CC(O)(C(F)(F)F)C(F)(F)F)c1cccs1
Reply | > 10 µM (inactive)

Ask | Requested field: GI50. Item: O=Cc1ccc2c(c1)CC1(C2)Cc2ccc3c(c2C1)CCC3 (centres undefined)
Reply | 16.6 µM (inactive)
